System: HeLa
Experiment: MALAT1 nuclear FISH intensity, robust Z-score vs DMSO; higher = more nuclear MALAT1 lncRNA, active = -3 or less
Conditions: 10 µM; 6 h
Where a name gives a salt, the structure may show the parent alone.
Parameter Measured: MALAT1 nuclear FISH intensity
I only need the number, thanks.

For orientation, consider the following solved cases.
O=C(O)c1cccnc1Nc1cccc(C(F)(F)F)c1 [Niflumic acid] : -0.0939
CO[C@H]1/C=C/O[C@@]2(C)Oc3c(C)c(O)c4c(O)c(cc(O)c4c3C2=O)NC(=O)/C(C)=C\C=C\[C@H](C)[C@H](O)[C@@H](C)[C@@H](O)[C@@H](C)[C@H](OC(C)=O)[C@@H]1C [Rifamycin SV sodium salt] : -0.605
N#CC(=Cc1ccc2[nH]ccc2c1)C(N)=C(C#N)C#N : -1.64
Cc1ccc(NC(=O)c2ccc(CN3CCN(C)CC3)cc2)cc1Nc1nccc(-c2cccnc2)n1 [Imatinib mesylate] : 0.735
CN(C)[C@@H]1C(O)=C(C(N)=O)C(=O)[C@@]2(O)C(O)=C3C(=O)c4c(O)cccc4[C@@](C)(O)[C@H]3C[C@@H]12 [Tetracycline] : -0.625

Entry C/C(=C\C(=O)OCCCCCCCCC(=O)O)C[C@@H]1OC[C@H](C[C@@H]2O[C@H]2[C@@H](C)[C@H](C)O)[C@@H](O)[C@H]1O [Mupirocin] ; assay system HeLa; MALAT1 nuclear FISH intensity recorded at -0.317

Entry CC(C)(C)NC(=O)[C@@H]1CN(Cc2cccnc2)CCN1C[C@@H](O)C[C@@H](Cc1ccccc1)C(=O)N[C@H]1c2ccccc2C[C@H]1O [Indinavir] ; assay system HeLa; MALAT1 nuclear FISH intensity recorded at -0.924

Entry Nc1cccc2c1CN(C1CCC(=O)NC1=O)C2=O (centres undefined) [Lenalidomide] ; assay system HeLa; MALAT1 nuclear FISH intensity recorded at 0.0139

Entry CC(c1cc2ccccc2s1)N(O)C(N)=O (centres undefined) [Zileuton] ; assay system HeLa; MALAT1 nuclear FISH intensity recorded at -0.062

Entry CO[C@H]1O[C@@H]2O[C@@]3(C)CC[C@H]4[C@H](C)CC[C@@H]([C@H]1C)[C@@]24OO3 [Artemether] ; assay system HeLa; MALAT1 nuclear FISH intensity recorded at -0.163

Entry CCCC1O[C@@H]2C[C@H]3[C@@H]4CCC5=CC(=O)C=C[C@]5(C)[C@H]4[C@@H](O)C[C@]3(C)[C@]2(C(=O)CO)O1 (some centres undefined) [Budesonide] ; assay system HeLa; MALAT1 nuclear FISH intensity recorded at 1.13

Entry O=c1cc(N2CCOCC2)oc2c(-c3ccccc3)cccc12 [LY-294,002 hydrochloride] ; assay system HeLa; MALAT1 nuclear FISH intensity recorded at -1.47

Entry "CCCCCCCCCCCCCCCC(=O)N[C@@H](COP(=O)(O)O)C(=O)O" ; assay system HeLa; MALAT1 nuclear FISH intensity recorded at -1.25

Entry COc1c(C)c2c(c(O)c1C/C=C(\C)CCC(=O)O)C(=O)OC2 [Mycophenolic acid] ; assay system HeLa; MALAT1 nuclear FISH intensity recorded at -0.749

###

System: HeLa;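 also: High-content confocal imaging of branched-DNA amplified FISH in 384-well plates, Hoechst-defined nuclei, score is well value minus plate DMSO median over DMSO robust SD, four wells per compound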
Test: MALAT1 nuclear FISH intensity, robust Z-score vs DMSO; higher = more nuclear MALAT1 lncRNA, active = -3 or less
Details: 10 µM; 6 h
# label = True if MALAT1 nuclear FISH intensity >= -0.2 else False

NNc1nncc2ccccc12 : False
NC(=O)Cc1cccc(C(=O)c2ccccc2)c1N : False
Cc1cn([C@@H]2C[C@@H](O)[C@H](CO)O2)c(=O)[nH]c1=O : True
C=CC[C@@H]1/C=C(\C)C[C@H](C)C[C@H](OC)[C@H]2O[C@@](O)(C(=O)C(=O)N3CCCC[C@H]3C(=O)O[C@H](/C(C)=C/[C@@H]3CC[C@@H](O)[C@H](OC)C3)[C@H](C)[C@@H](O)CC1=O)[C@H](C)C[C@@H]2OC [Tacrolimus (Fk506)] : False
C=C1CCC(O)C/C1=C\C=C1\CCCC2(C)C1CCC2C(C)CCC(O)C(C)(C)O (stereo not drawn) [24,25-Dihydroxyvitamin D3] : False

Incoming: Please indicate if the recorded MALAT1 nuclear FISH intensity for COc1ccnc(C[S+]([O-])c2nc3cc(OC(F)F)ccc3[nH]2)c1OC (stereo not drawn) meets or exceeds -0.2.
Outgoing: True

Incoming: Please indicate if the recorded MALAT1 nuclear FISH intensity for CC[C@]1(O)C[C@@H]2CN(CCc3c([nH]c4ccccc34)[C@@](C(=O)OC)(c3cc4c(cc3OC)N(C)[C@H]3[C@@](O)(C(=O)OC)[C@H](OC(C)=O)[C@]5(CC)C=CCN6CC[C@]43[C@@H]65)C2)C1 [Vinblastine] meets or exceeds -0.2.
Outgoing: False

Incoming: Please indicate if the recorded MALAT1 nuclear FISH intensity for "COc1cc(C(=O)NCc2ccc(OCCN(C)C)cc2)cc(OC)c1OC" meets or exceeds -0.2.
Outgoing: True
